- PROCEDURE_DETAILS: Cytotoxicity against BALB/c mouse T cell assessed as reduction in cell viability after 48 hrs by CCK8 assay
- Type: tissue-based, T cell line
- COND: BALB/c mouse T cells
QUANTITY_KIND: CC50 at 48 h

| COMPOUND_STRING | MEASURED |
| --- | --- |
| CC1=C(O)C(=O)C=C2C1=CC=C1[C@@]2(C)CC[C@@]2(C)[C@@H]3C[C@](C)(C(=O)OCCCl)CC[C@]3(C)CC[C@]12C | 1100 nM |
| CC1=C(O)C(=O)C=C2C1=CC=C1[C@@]2(C)CC[C@@]2(C)[C@@H]3C[C@](C)(C(=O)OCc4ccccc4Br)CC[C@]3(C)CC[C@]12C | 1800 nM |
| CC1=C(O)C(=O)C=C2C1=CC=C1[C@@]2(C)CC[C@@]2(C)[C@@H]3C[C@](C)(C(=O)OCc4ccc(F)cc4)CC[C@]3(C)CC[C@]12C | 2000 nM |
| CC1=C(O)C(=O)C=C2C1=CC=C1[C@@]2(C)CC[C@@]2(C)[C@@H]3C[C@](C)(C(=O)OCc4cccc(Br)c4)CC[C@]3(C)CC[C@]12C | 1800 nM |
| C#CCOC(=O)[C@]1(C)CC[C@]2(C)CC[C@]3(C)C4=C[C@@H](c5c[nH]c6cc(Cl)ccc56)c5c(cc(OC(C)=O)c(OC(C)=O)c5C)[C@]4(C)CC[C@@]3(C)[C@@H]2C1 | 4100 nM |
| CC1=C(O)C(=O)C=C2C1=CC=C1[C@@]2(C)CC[C@@]2(C)[C@@H]3C[C@](C)(C(=O)OCc4ccccc4)CC[C@]3(C)CC[C@]12C | 1100 nM |
